# method: FIH study 67856633LYM1001 plasma pharmacokinetics
# Format: in vivo, human
# run parameters: human, plasma, oral, 200 mg, Cycle 2 Day 1, 50 mg capsule, cohort 4 × 50 mg, Subject 100032 excluded; median; read-out: Tmax
property measured: Tmax

Exercise: Given the entry O=C(Nc1ccnc(C(F)(F)F)c1)c1cnn(-c2cccc3c(=O)[nH]ccc23)c1C(F)(F)F [Compound A] , report its measured Tmax.
Solution: 2 h

---

# method: Serum concentration after 28 days of oral dosing in male OCI-LY3 tumor-bearing NSG mice
# Assay type: in vivo
# run parameters: mouse, 10 mg/kg BID PO 28 days, 2 h post last dose, mean
property measured: concentration at 2 h (ng/mL)
Please give a number only; it is taken to be in ng/mL.

Exercise: # get_value(readout='concentration at 2 h', item= `O=C(Nc1ccnc(C(F)(F)F)c1)c1cnn(-c2cccc3c(=O)[nH]ccc23)c1C(F)(F)F` )
Solution: 4600
